Recorded IC50, one value per entry.
tested on: MV-4-11; assay: Cell viability assay (CellTiter-Meiluncell Luminescent), tumor cell proliferation, MV-4-11; conditions: Homo sapiens, MV4-11, 96 h, read-out: inhibitory activity (IC50, nM) against tumor cells proliferation, MV-4-11

// worked examples, IC50 included
smiles.str: O=C1CCN(N2Cc3cc(CN4CCC(c5ccccc5)CC4)ccc3C2=O)C(=O)N1
test.system: MV-4-11
IC50: 500 to 1000 nM

smiles.str: O=C1CCN(N2Cc3cc(CN4CCN(c5ccc(F)cc5)CC4)ccc3C2=O)C(=O)N1
test.system: MV-4-11
IC50: 500 to 1000 nM

smiles.str: Cc1cccc(N2CCN(Cc3ccc4c(c3)CN(N3CCC(=O)NC3=O)C4=O)CC2)c1
test.system: MV-4-11
IC50: 500 to 1000 nM

smiles.str: O=C1CCN(N2Cc3cc(CN4CCN(c5cc(Cl)cc(Cl)c5)CC4)ccc3C2=O)C(=O)N1
test.system: MV-4-11
IC50: 100 to 300 nM

smiles.str: O=C1CCN(N2Cc3cc(CN4CCC(c5cccc(C(F)(F)F)c5)CC4)ccc3C2=O)C(=O)N1
test.system: MV-4-11
IC50: 500 to 1000 nM

-- ask Value lookup for IC50; key = O=C1CCN(N2Cc3cc(CN4CCN(c5cc(Cl)ccc5Cl)CC4)ccc3C2=O)C(=O)N1
-- reply 100 to 300 nM

-- ask Value lookup for IC50; key = O=C1CCN(N2Cc3cc(CN4CCC(c5cccc(Cl)c5Cl)CC4)ccc3C2=O)C(=O)N1
-- reply 100 to 300 nM

-- ask Value lookup for IC50; key = O=C1CCN(N2Cc3cc(CN4CCC(c5cccc(Br)c5)CC4)ccc3C2=O)C(=O)N1
-- reply 100 to 300 nM

-- ask Value lookup for IC50; key = O=C1CCN(N2Cc3cc(CN4CCN(c5ccccc5Cl)CC4)ccc3C2=O)C(=O)N1
-- reply 500 to 1000 nM

-- ask Value lookup for IC50; key = O=C1CCN(N2Cc3cc(CN4CCN(c5ccccc5Br)CC4)ccc3C2=O)C(=O)N1
-- reply 500 to 1000 nM

-- ask Value lookup for IC50; key = O=C1CCN(N2Cc3cc(CN4CCN(c5cccc(Br)c5)CC4)ccc3C2=O)C(=O)N1
-- reply 100 to 300 nM

----------
test system: H2228; assay: Cell viability assay (CellTiter-Meiluncell Luminescent), tumor cell proliferation, H2228; conditions: Homo sapiens, NCI-H2228, 96 h, read-out: Inhibition Rate at 500 nM (%)
observation.type: inhibition at 0.5 µM

smiles.str: Cc1cc2c(N3CCN(Cc4ccc5c(c4)CN(N4CCC(=O)NC4=O)C5=O)CC3)ncnc2s1
inhibition at 0.5 µM: 15 to 20%

-- ask Value lookup for inhibition at 0.5 µM; key = O=C1CCN(N2C(=O)c3ccc(CN4CCN(c5ncnc6sc7c(c56)CCCC7)CC4)cc3C2=O)C(=O)N1
-- reply 20 to 25%

-- ask Value lookup for inhibition at 0.5 µM; key = O=C1CCN(N2C(=O)c3ccc(CNC45CC6CC(CC(O)(C6)C4)C5)cc3C2=O)C(=O)N1
-- reply 25 to 30%

Attribution: patent EP4722207A1
